Just for reference, paper PMC10164552 is where these values come from.

Biological target: PBRM1 BD2 (UniProt Q86U86 178-291)
Sequence (Q86U86 178-291): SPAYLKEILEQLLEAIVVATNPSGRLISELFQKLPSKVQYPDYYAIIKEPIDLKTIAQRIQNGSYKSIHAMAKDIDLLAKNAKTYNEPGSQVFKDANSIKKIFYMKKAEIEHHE
Experiment: NMR titration (1H-15N HSQC); NMR: 0.1 mM 15N-BD, 50 mM K phosphate pH 7.0, 50 mM KCl, 2 mM DTT, 2 mM EDTA, 7% D2O, 25 C; EMSA: 50 mM K phosphate pH 7.0, 10 mM KCl, 2 mM DTT, 2 mM EDTA, 5% sucrose, on ice 1 h, gel at 4 C
Details: protein: recombinant; tags: His tag, TEV-cleaved; hairpin, UUCG loop
EXPERIMENTAL ENDPOINT: pKd
pKd (log units): -log10 of the concentration in mol/L.

Looking for the measured pKd of GCGUAGACAGCUGUUCGCAGCUGUCUACGC (structured_RNA) [dsRNAI stem-loop 30 nt] , can you help?
4.60
